Test system: L1210 leukemia ip in BDF1 mice, survival T/C
Experiment: NCI In Vivo Anticancer Drug Screen. Data for tumor model L1210 Leukemia (intraperitoneal) in B6D2F1 (BDF1) mice
Conditions: endpoint: mean survival time; dose: 100.0 mg/kg/injection; schedule: Q01DX009 (ip); vehicle: other; higher = longer survival
Protocol: The antitumor activity of compounds was measured in mice bearing transplantable tumors. Survival or tumor size were measured and the results are expressed as the measurement made in the treated group (T) divided by the measurement made in the vehicle treated control group (C). The tumor model used in this assay is L1210 Leukemia (intraperitoneal) in B6D2F1 (BDF1) mice
Inconclusive results and toxic doses are left out.
measurement-kind: T/C

Input "c1ccc2c(c1)nnn1c3ccccc3nc21" , output reported T/C.
101 % of control

Input COc1ccc2c(c1)C(Br)N(S(=O)(=O)c1ccc(C)cc1)CCC2=O (stereo unspecified) , output reported T/C.
92 % of control

Input "CCC1(C)CC(=O)N(C/C=C(\C)CCC(=O)O)C(=O)C1" , output reported T/C.
103 % of control

Input "Cc1cc(C)c(-c2cc(O)c(C)cc2O)c(C)c1" , output reported T/C.
101 % of control

Input "COC(=O)c1cn2c(c1C(=O)OC)CCC2" , output reported T/C.
459 % of control

Input "C/C=C(/C)N(C(C)=O)N(C(C)=O)c1ccc([N+](=O)[O-])cc1[N+](=O)[O-]" , output reported T/C.
103 % of control
